# measured.target: T1, Mcl-1, Q07820
# T1 chain: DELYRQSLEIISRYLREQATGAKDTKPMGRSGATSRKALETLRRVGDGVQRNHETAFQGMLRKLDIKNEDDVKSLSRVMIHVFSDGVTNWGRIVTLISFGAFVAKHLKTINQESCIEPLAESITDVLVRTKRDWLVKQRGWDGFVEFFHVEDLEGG
# procedure.details: peptide SPOT array, c-Myc-tagged receptor at 1 uM or 100 nM, anti-c-Myc-Cy3
measured.parameter: SPOT signal as a fraction of Bim BH3's signal on the same receptor and array

Recorded results for 5 binders are shown here.
binder	result.value
YKSLLLLAYLIRNGSERVVTSAREHI [CLINT1]	0.05
GGRVKLVHSALIQLGDSLSHKGNEFW [WDR60]	0.34
SVRYYPSGDAFASGSDDATCRLYDLR [GNB5]	0.02
LMARPAVALHDQSIADGFKEAVRYVL [SOS2]	0.45
LRCEMASTGEVACFLEGIHTAFLKAM [CPS1]	0.03

I = QVQNIKLAGSLQHVAEKLCRELYNKA [CLEC1A]
II = TDENKKVGLALKDLAKQYSDRLECCE [NUB1]
Req: SPOT signal as a fraction of Bim BH3's signal on the same receptor and array comparison. Which is larger, I or II ? Choose, then provide that item's label.
Resp: I
